Measured values drawn from PubChem BioAssay AID1159580 for this set.

test: chemical genetic growth profiling, strain panel (AID 1159580);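 also: tested at 20 µM; growth read once vehicle control cultures reached saturation at 30 °C; 1 = growth at the plate median or of vehicle wells; lower values mean less growth of the strain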; conditions: S. cerevisiae deletion strains, growth OD, locus YNL250W, strain rad50, active compounds read low
Out of some 5,500 compounds screened, about 2,000 (36%) were called active. Roughly 18% stayed inconclusive and do not appear here. This is one part of the list.
Assay Readout: normalized growth
Give bare numbers.

See these solved cases before continuing.
Please report normalized growth for the following molecule: NC(N)=NCCCC(NC(=O)C(N)Cc1ccc(O)cc1)C(=O)O (stereo not given)
0.951

Assign normalized growth to the following record: `N#C/C(=C\c1cccc(O)c1)C(=O)O`
0.991

Report measured normalized growth; entry is `Cc1cc(=O)oc2c(O)c(O)ccc12`
0.991

Answer with the recorded normalized growth of CC1(C)C(O)CC(O)C2(C)C1CC(O)C1(C)C2CCC2(C)C(c3ccoc3)OC(=O)C3OC321 (stereo not given) only.
1.03

For `O=c1cc(-c2ccccc2)oc2cc(O)cc(O)c12` , write its normalized growth.
0.925

Return normalized growth (reported value) for this molecule: `O=c1cc(-c2ccccc2)oc2c(O)c(O)ccc12`
0.966

Hi team, please reply with normalized growth for each item in this list.
1. CCN(CCCc1ccccc1)CCCc1ccccc1
2. CN(C(=O)CN(CCO)CC(=O)N(C)C(C)(C)Cc1ccccc1)C(C)(C)Cc1ccccc1

1.02
0.996

Give normalized growth for each of the items listed below.
1. C=C1[C@H]2CC[C@@]3(C)[C@H](c4ccoc4)OC(=O)C[C@]13O[C@H]1C[C@H](O)C(C)(C)[C@H](CC(=O)OC)[C@]12C
2. NNCCc1ccccc1
3. Nc1ccn(C2O[C@H](CO)[C@@H](O)[C@H]2O)c(=O)n1 (stereo not given in full)
4. CCCCC[C@H](CC(=O)NO)C(=O)N[C@H](C(=O)N1CCC[C@H]1CO)C(C)C
5. CC(=O)OCC(=O)[C@@]1(O)[C@H](OC(C)=O)CC2C3CCC4=CC(=O)C=C[C@]4(C)[C@@]3(F)[C@@H](O)C[C@@]21C (stereo not given in full)

[1.01, 0.983, 1, 1.02, 0.985]

Hi there! I need normalized growth for each item below, if you can.
1. COc1c(Cl)ccc(Cl)c1C(=O)O
2. CO[C@]12C[C@@H](COC(=O)c3cncc(Br)c3)CN(C)[C@@H]1Cc1cn(C)c3cccc2c13
3. C=C1C2CC[C@@]3(C)[C@H](c4ccoc4)OC(=O)C[C@]13O[C@H]1CC(=O)C(C)(C)C(CC(=O)OC)[C@@]21C (stereo not given in full)

1
1
1.02

I would be grateful if you could provide normalized growth for each of the following entries.
1. C=C1C2CCC3(C)C(c4ccoc4)OC(=O)CC13OC1CC(OC(C)=O)C(C)(C)C(CC(=O)OC)C12C (stereo not given)
2. C=C1C(C2(C)C=CC(=O)C(C)(C)C2CC(=O)OC)CC[C@@]2(C)[C@H](c3ccoc3)OC(=O)C3OC132 (stereo not given in full)
3. CNC(=O)Oc1ccc2c(c1)[C@]1(C)CCN(C)[C@@H]1N2C
4. C=C[C@H]1CN2CC[C@H]1C[C@@H]2[C@H](O)c1ccnc2ccccc12

0.982
0.972
1.01
0.986
